Target: T1, Alba1 (Sso10b) (Sulfolobus solfataricus, UniProt P60849 1-97)
T1 sequence: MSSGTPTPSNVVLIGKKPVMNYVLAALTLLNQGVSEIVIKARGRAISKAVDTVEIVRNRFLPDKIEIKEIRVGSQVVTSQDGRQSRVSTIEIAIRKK
Test: EMSA
property.label: Kd (nM)

[[record]]
binder = "AAAAAAAAAAAAAAAAAAAAAAAAAAAA (ssRNA) [28A]"
property_label = "Kd"
reading = 960

